# target or system: Ras guanyl-releasing protein 3 (Homo sapiens, UniProt Q8IV61)
# Sequence (Q8IV61 whole entry): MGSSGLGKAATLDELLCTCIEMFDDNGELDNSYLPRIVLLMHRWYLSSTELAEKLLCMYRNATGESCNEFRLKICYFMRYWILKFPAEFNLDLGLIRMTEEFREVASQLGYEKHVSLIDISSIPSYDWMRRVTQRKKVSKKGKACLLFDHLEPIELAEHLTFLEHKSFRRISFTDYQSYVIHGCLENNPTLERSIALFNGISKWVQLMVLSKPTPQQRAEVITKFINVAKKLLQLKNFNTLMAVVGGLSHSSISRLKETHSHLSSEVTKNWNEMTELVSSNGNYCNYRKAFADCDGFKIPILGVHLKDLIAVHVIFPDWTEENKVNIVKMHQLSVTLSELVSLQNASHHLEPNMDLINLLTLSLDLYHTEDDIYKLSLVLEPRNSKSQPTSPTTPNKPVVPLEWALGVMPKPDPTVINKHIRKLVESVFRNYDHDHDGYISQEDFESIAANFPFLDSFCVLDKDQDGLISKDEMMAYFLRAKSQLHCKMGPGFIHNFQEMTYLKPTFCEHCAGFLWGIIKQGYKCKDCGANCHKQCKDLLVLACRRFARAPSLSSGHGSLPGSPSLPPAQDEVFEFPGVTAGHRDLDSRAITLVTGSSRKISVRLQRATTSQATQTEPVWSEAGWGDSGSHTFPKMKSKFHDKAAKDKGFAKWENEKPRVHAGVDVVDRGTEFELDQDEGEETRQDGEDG
# experiment: Displacement of [3H]PDBu from RasGRP3 expressed in cells
property measured: Ki
Param answer (str): number followed by unit.

Reference set, count: 4
1. CCCC(CCC)C(=O)OCC1(CO)C/C(=C/c2cnc3ccccc3c2)C(=O)O1 (stereo not given) : 32.2 nM
2. COc1ccc(C(=O)OCC2(CO)C/C(=C\c3ccncc3)C(=O)O2)cc1 (stereo not given) : 54.2 nM
3. CN(C)c1ccc(C(=O)OCC2(CO)C/C(=C/c3ccc4ccccc4n3)C(=O)O2)cc1 (stereo not given) : 2040 nM
4. CCCC(CCC)C(=O)OCC1(CO)C/C(=C\c2ccc3ccccc3n2)C(=O)O1 (stereo not given) : 1.7 nM

Turning now to a further record.
Field request: Ki | item: CC(C)CC(CC(=O)OCC1(CO)C/C(=C\c2ccccn2)C(=O)O1)CC(C)C (stereo not given) 0.2 nM
